details: buffer; pH 7.4; 200.0 µM
reported_property: solubility kinetic

compound="CCN(C(=O)c1cc(Cl)ccc1Cl)C1CCS(=O)(=O)C1 (stereo not given)" reported_property="solubility kinetic" result="> 50.4 µg/mL"
compound=CCOC(=O)N1CCN(CCC(=O)c2ccc(Cl)cc2)CC1.Cl reported_property="solubility kinetic" result="> 48.7 µg/mL"
compound=CC(=O)c1c(C)[nH]c(C(=O)O)c1C reported_property="solubility kinetic" result="> 27.2 µg/mL"
compound=C=CCn1c(SCC(=O)N2CCOCC2)nc2sc(CC)cc2c1=O reported_property="solubility kinetic" result="> 56.9 µg/mL"
compound=CCOC(=O)C1CCN(C(=O)/C=C/c2ccc(S(=O)(=O)N3CCOCC3)cc2)CC1 reported_property="solubility kinetic" result="> 65.5 µg/mL"
compound="O=C(O)C1c2ccccc2C(=O)N(Cc2ccc(F)cc2)C1c1ccncc1 (stereo not given)" reported_property="solubility kinetic" result="> 56.5 µg/mL"
compound=COc1cccc(C(=O)N2CCOCC2)c1OC reported_property="solubility kinetic" result="> 37.7 µg/mL"
compound="COc1ccc(N2C(=O)CSC2c2ccccc2)cc1 (stereo not given)" reported_property="solubility kinetic" result="42.3 µg/mL"
compound=S=C(NCCc1ccccn1)Nc1ccccc1 reported_property="solubility kinetic" result="32.1 µg/mL"
compound=O=[N+]([O-])c1ccc2nc(NS(=O)(=O)c3ccccc3[N+](=O)[O-])sc2c1 reported_property="solubility kinetic" result="55.7 µg/mL"
compound=CN(C)CCC=C1c2ccccc2CCc2ccccc21.Cl reported_property="solubility kinetic" result="> 47.1 µg/mL"
compound=O=C(Nc1cccc(O)c1)c1cccc(C(=O)Nc2cccc(O)c2)c1 reported_property="solubility kinetic" result="1.8 µg/mL"
compound=COc1ccccc1NC(=O)COC(=O)c1cn(C)c2ccccc12 reported_property="solubility kinetic" result="1.5 µg/mL"
compound=COc1ccccc1Nc1nc(N)nc(CN2CCC(C)CC2)n1 reported_property="solubility kinetic" result="> 49.3 µg/mL"
compound=COc1ccc(CNC(=O)c2nccnc2CO)cc1 reported_property="solubility kinetic" result="> 41 µg/mL"

Ref: PubChem BioAssay AID1996
